Source of measurements: PubChem BioAssay

Listed next: entries and their corresponding z-score.
Test: modulators of S6 phosphorylation in cells, primary screen, cell-based, A549, cytoblot, luminescence, serum-stimulated (AID 1158);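 also: serum-stimulated A549 lung adenocarcinoma cells; signal is phosphorylated S6 detected by cytoblot immunostaining with HRP secondary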
Conditions: A549 phospho-S6 cytoblot, 5 h, higher = more signal
Reply with the value as a number alone.

COc1cc(OC)c(C(O)C2C=CC3C(=O)N(c4ccccc4)C(=O)C3N2Nc2ccccc2)cc1Br (stereo not drawn) = -0.543
COc1ccc([Si](C)(C)[C@@H]2[C@@H](CCn3cc([C@H](O)c4ccccc4)nn3)O[C@]3(C(=O)N(Cc4ccc(N5CCC5=O)cc4)c4ccccc43)[C@H]2C)cc1 = 0.759

For record `COCCOC(=O)N1C(=O)[C@@]2(c3cc(C#CCNC(N)=O)ccc31)[C@H](C(=O)N1CCc3cc(OC)c(OC)cc3C1)[C@H]1C(=O)O[C@H](c3ccccc3)[C@H](c3ccccc3)N1[C@@H]2c1ccccc1OCCO` the listed z-score is 1.81

For record `CC(C)[Si](C#C[Si](C(C)C)(C(C)C)C(C)C)(O[C@H](C)c1cn([C@H](CO)Cc2ccccc2)nn1)C(C)C` the listed z-score is 0.479

For record `CCCC[C@@H]1C[C@H]1[C@@H](NC(=O)c1ccccc1)c1ccc(C(F)(F)F)cc1` the listed z-score is -0.295

For record `COc1ccc([Si](C)(C)[C@H]2[C@H](CCO)O[C@@]3(C(=O)N(Cc4cccc(N5C(=O)COc6ccccc65)c4)c4ccccc43)[C@@H]2C)cc1` the listed z-score is 0.805

For record `CC(C)N1C(=O)C[C@@](C(=O)NCCCN(C)C)(c2ccc([N+](=O)[O-])cc2)[C@H]1c1ccc(CO)cc1` the listed z-score is 0.23

For record CC(C)(C)N1CC=CC23O[C@@H]4C=CCOC(=O)[C@@H]4[C@H]2C(=O)N(CCCCCCO)[C@@H]3C1=O (stereo partly drawn) the listed z-score is -0.613
